molecular target: IL-4 (Homo sapiens); construct: purchased Acros Biosystems IL4-H4218; host or cells: HEK-293; assay: HEK-Blue IL-4/IL-13 cell-based reporter (SEAP) IL-4 inhibition assay; settings: 10 uM; percent activity in HEK-Blue IL-4/IL-13; in %
Group membership follows Activity at 10 uM per the scheme lower: < 20; middle: ≥ 20 and < 50; upper: ≥ 50

compound="N#Cc1c(-c2ccc(O)cc2)cc(-c2ccc(F)cc2)nc1N [Compound 17]" group_label=upper
compound="N#Cc1c(-c2ccc(O)c(O)c2)cc(-c2ccc(N3CCCCC3)cc2)[nH]c1=O [Compound 56]" group_label=lower

Below: the item to evaluate.
Please classify: COc1ccc(-c2cc(-c3cccc(O)c3)c(C#N)c(=O)[nH]2)cc1 [Compound 43]
middle

###

target: IL-4 (Homo sapiens); construct: purchased Acros Biosystems IL4-H4218; host or cells: HEK-293; experiment: HEK-Blue IL-4/IL-13 cell-based reporter (SEAP) IL-4 inhibition assay; settings: 10 uM; percent activity in HEK-Blue IL-4/IL-13; in %
Tag: 1 if measured Activity at 10 uM is not below 30, -1 if it is.

compound="COc1ccc(-c2cc(-c3ccccc3)c(C#N)c(=O)[nH]2)cc1 [Compound 34]" group_label=1

Entry COc1ccc(-c2cc(-c3ccc(O)cc3)c(C#N)c(SC)n2)c(OC)c1 [Compound 66] : is its Activity at 10 uM no less than 30?
-1

Item COc1ccc(-c2cc(-c3ccccc3O)c(C#N)c(=O)[nH]2)cc1 [Compound 42] with Activity at 10 uM of 30 or above?
-1

###

Overview of reported Activity at 1 uM across a group of compounds:
molecular target: IL-4 (Homo sapiens); construct: purchased Acros Biosystems IL4-H4218; host or cells: HEK-293; test: HEK-Blue IL-4/IL-13 cell-based reporter (SEAP) IL-4 inhibition assay; conditions: 1 uM; percent activity in HEK-Blue IL-4/IL-13; in %
Reply briefly: the number, and no unit.

See these solved cases before continuing.
compound=N#Cc1c(-c2ccccc2)cc(-c2ccccc2)nc1N1CCCCC1 experimental_system="IL-4 (Homo sapiens)" metric="Activity at 1 uM" experimental_result=95.46
compound=COc1nc(-c2ccccc2)cc(-c2ccccc2)c1C#N experimental_system="IL-4 (Homo sapiens)" metric="Activity at 1 uM" experimental_result=96.92
compound="N#Cc1c(-c2ccc(O)c(O)c2)cc(-c2ccc(F)cc2)nc1N [Compound 2]" experimental_system="IL-4 (Homo sapiens)" metric="Activity at 1 uM" experimental_result=64.46

// Activity at 1 uM lookup, compound = `COc1ccc(-c2cc(-c3ccc(-c4ccccc4)cc3)[nH]c(=O)c2C#N)cc1O` , result: 17.656

Reported Activity at 1 uM for `Cn1ccc(-c2cc(-c3cccc(O)c3)c(C#N)c(=O)[nH]2)c1` was 94.4121

Activity at 1 uM in this record for `COc1ccc(-c2cc(-c3ccc(O)cc3)c(C#N)c(SC)n2)c(OC)c1` : 87.86

compound `COc1ccc(-c2cc(-c3ccc(C)o3)c(C#N)c(=O)[nH]2)cc1` , Activity at 1 uM observed: 89.04

Consider `N#Cc1c(-c2cccc(O)c2)cc(-c2cc(F)c(F)c(F)c2)[nH]c1=O` . Its measured Activity at 1 uM is 88.75

In plain terms, `COc1ccc(-c2cc(-c3ccccc3)nc(Br)c2C#N)cc1` has a documented Activity at 1 uM of 96.31

Form: compound = `COc1ccc(-c2cc(-c3cccc(O)c3)c(C#N)c(=O)[nH]2)cc1` ; Activity at 1 uM = 112.2

What the record says about `COc1ccc(-c2cc(-c3ccccc3)c(C#N)c(SC)n2)cc1` : Activity at 1 uM is 95.33

Activity at 1 uM in this record for `Cc1cc(-c2cc(-c3cccc(O)c3)c(C#N)c(=O)[nH]2)c(C)s1` : 85.76

The recorded Activity at 1 uM for entry `COc1ccc(-c2cc(-c3ccc(OC)c(O)c3)c(C#N)c(=O)[nH]2)cc1` equals 17.94

According to the records, this compound `N#Cc1c(-c2cc(O)c(O)c(O)c2)cc(-c2ccc(F)cc2)nc1N` displays Activity at 1 uM of 84.76

Looking up `COc1ccc(-c2cc(-c3ccc(OC)c(O)c3)c(C#N)c(N)n2)cc1` , I found its Activity at 1 uM recorded as 64.45

The measured Activity at 1 uM associated with `COc1ccc(-c2cc(-c3ccc(O)cc3)c(C#N)c(=O)[nH]2)cc1` reads 33.62

Activity at 1 uM for `N#Cc1c(-c2ccc(O)cc2)cc(-c2ccc(F)cc2)nc1N` is 99.0184

`N#Cc1c(-c2ccc(O)c(O)c2)cc(-c2ccc(N3CCCCC3)cc2)[nH]c1=O` yielded Activity at 1 uM of 81.52

Lab note: measured Activity at 1 uM of N#Cc1c(-c2ccc(O)c(O)c2)cc(-c2ccc(F)cc2)nc1N [Compound 1] was 71.73

Consider `Cc1ccc(-c2cc(-c3ccc(F)cc3)nc(N)c2C#N)o1` . Its measured Activity at 1 uM is 77.98

###

The following compounds are shown together with reported EC50 values.
Target: IL-4 (Homo sapiens)
Construct: purchased Acros Biosystems IL4-H4218; host or cells: HEK-293
Assay: HEK-Blue IL-4/IL-13 cell-based reporter (SEAP) IL-4 inhibition assay
Details: Example 3, triplicate; read-out: EC50 of IL-4 inhibition in HEK-Blue IL-4/IL-13 cells
Procedure: HEK-Blue IL-4/IL-13 cells were purchased from Invivogen and maintained in DMEM complete with 10% fetal bovine serum, 10 μg/ml of blasticidin and 100 μg/ml of Zeocin, 100 μg/mL Normocin, and 100 U/mL-100 μg/mL Pen-Strep. Cells used for assays were between passages 12 and 18. […] The optical density was then read at 650 nm with a Molecular Devices SpectraMax M5 Microplate Reader. Data was plotted and analyzed in GraphPad Prism 8. […]
Output spec: scalar in µM, unitless text.

compound="N#Cc1c(-c2ccc(O)c(O)c2)cc(-c2ccc(F)cc2)nc1N [Compound 1]" metric=EC50 experimental_result=40

Quick note, EC50 for COc1ccc(-c2cc(-c3cccnc3)nc(N)c2C#N)cc1O [Compound 25] landed at 7.6

###

target: IL-4 (Homo sapiens, UniProt P05112); construct: purchased Acros Biosystems IL4-H4218; host or cells: HEK-293; assay: HEK-Blue IL-4/IL-13 cell-based reporter (SEAP) IL-4 inhibition assay; conditions: 10 uM; percent activity in HEK-Blue IL-4/IL-13; in %
Sequence (P05112 25-153): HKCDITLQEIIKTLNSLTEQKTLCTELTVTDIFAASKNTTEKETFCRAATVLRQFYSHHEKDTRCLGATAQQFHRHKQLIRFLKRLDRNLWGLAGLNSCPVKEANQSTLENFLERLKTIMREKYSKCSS
Classify as follows. Reported Activity at 10 uM greater than or equal to 20: TRUE. Reported Activity at 10 uM below: FALSE.

Some entries whose results are on file:
compound=N#Cc1c(-c2cc(O)c(O)c(O)c2)cc(-c2ccc(F)cc2)nc1N group_label=TRUE
compound=COc1ccc(-c2cc(-c3ccccc3)c(C#N)c(S)n2)cc1 group_label=FALSE
compound=COc1ccc(-c2cc(-c3ccccc3)nc(Br)c2C#N)cc1 group_label=TRUE

Has `N#Cc1c(-c2ccccc2O)cc(-c2ccc(F)cc2)nc1N` a recorded Activity at 10 uM greater than or equal to 20?
FALSE

Assess whether reported Activity at 10 uM for `COc1ccc(-c2cc(-c3ccc4ccccc4c3)c(C#N)c(=O)[nH]2)cc1` sits at 20 or higher.
TRUE

Test whether the compound N#Cc1c(-c2ccc(O)c(O)c2)cc(-c2ccc(F)cc2)nc1N [Compound 2] records Activity at 10 uM of 20 or higher.
FALSE

Please check the record `COc1ccc(-c2cc(-c3ccc(C)o3)c(C#N)c(=O)[nH]2)cc1` and state if its Activity at 10 uM is at or above 20.
TRUE

Determine whether measured Activity at 10 uM meets or exceeds 20 for `COc1ccc(-c2cc(-c3ccc(O)cc3)c(C#N)c(=O)[nH]2)cc1`
TRUE

Quick check: does `COc1ccc(-c2cc(-c3ccc(Cl)c(Cl)c3)c(C#N)c(=O)[nH]2)cc1` have Activity at 10 uM greater than or equal to 20?
TRUE

Record `Cc1ccc(-c2cc(-c3ccc(F)cc3)nc(N)c2C#N)s1` ; criterion: Activity at 10 uM no lower than 20. Met?
TRUE

Form field: Activity at 10 uM at least 20? Entry: `COc1ccc(-c2cc(-c3ccc(OC)c(O)c3)c(C#N)c(N)n2)cc1`
TRUE

###

molecular target: IL-4 (Homo sapiens, UniProt P05112); construct: purchased Acros Biosystems IL4-H4218; host or cells: HEK-293; test: HEK-Blue IL-4/IL-13 cell-based reporter (SEAP) IL-4 inhibition assay; conditions: 10 uM; percent activity in HEK-Blue IL-4/IL-13; in %
metric: Activity at 10 uM
Please respond with just the number, no unit label.

Worked cases, Activity at 10 uM given:
compound=Cc1cc(-c2cc(-c3cccc(O)c3)c(C#N)c(=O)[nH]2)c(C)s1 metric="Activity at 10 uM" experimental_result=39.79
compound=N#Cc1c(-c2ccccc2)cc(-c2ccccc2)nc1N1CCCCC1 metric="Activity at 10 uM" experimental_result=40.44
compound=COc1nc(-c2ccccc2)cc(-c2ccccc2)c1C#N metric="Activity at 10 uM" experimental_result=39.64
compound="N#Cc1c(-c2ccc(O)c(O)c2)cc(-c2ccc(F)cc2)nc1N [Compound 1]" metric="Activity at 10 uM" experimental_result=2.405
compound=COc1ccc(-c2cc(-c3ccc(-c4ccccc4)cc3)[nH]c(=O)c2C#N)cc1O metric="Activity at 10 uM" experimental_result=30.26

We now examine a further compound.
Please fill in: Activity at 10 uM reported for `Cn1ccc(-c2cc(-c3cccc(O)c3)c(C#N)c(=O)[nH]2)c1` = 75.91
